Source of measurements: paper PMC10661964

- METHOD: Plasma PK of total radioactivity, [14C]-nifurtimox and metabolites after oral dosing (HPLC-LSC)
- Type: in vivo
- CONDITION LABEL: rat; male Wistar rats, single oral 2.5 mg/kg [14C]-nifurtimox, pooled plasma
Here, each record is paired with measured Tmax data.
RECORDED METRIC: Tmax (h)

INSERT INTO measurements (compound, unit_string, val) VALUES
  ('CC1CS(=O)(=O)CCN1/N=C/C(=O)CCC#N (stereo not shown)', 'h', 3),
  ('CC1CS(=O)(=O)CCN1/N=C/c1ccc([N+](=O)[O-])o1 (stereo not shown) [Nifurtimox, reference compound]', 'h', 0.5),
  ('CC1CS(=O)(=O)CCN1n1cc(SCC(N)C(=O)O)ccc1=O (stereo not shown)', 'h', 0.5),
  ('CC(=O)NC(CSc1ccc(=O)n(N2CCS(=O)(=O)CC2C)c1)C(=O)O (stereo not shown)', 'h', 1.5);
